Numbers sourced from ChEMBL document CHEMBL3885861.

Species on record: Rattus norvegicus
Experiment: Open TG-GATES - Regimen: Single
Format: toxicity, organism-based, Sprague-Dawley
Set-up: regimen Single, gender Male, age 6 weeks
Conditions: in vivo, po, 0 mg/kg, 3 h, tissue Blood, route gavage, dose level Control
Catalogue of Eos values
Write it as a number; the unit % goes unstated.

compound: O=NN(CCCl)C(=O)NC1CCCCC1
Eos [%]: 0.6

Ask: Name the recorded Eos for `CCC1(c2ccccc2)C(=O)NC(=O)NC1=O` .
Result: 1

Ask: Try the compound CC(C)N(CCC(C(N)=O)(c1ccccc1)c1ccccn1)C(C)C (stereo unspecified) [DISOPYRAMIDE]
Result: 1

###

Catalogue of TG values
Species on record: Rattus norvegicus
Test: Open TG-GATES - Regimen: Daily Repeat
Type: toxicity, organism-based, Sprague-Dawley
Parameters: regimen Daily Repeat, gender Male, age 6 weeks
Details: in vivo, po, 0 mg/kg, 72 h, tissue Plasma, route gavage, dose level Control, time 3 day
Remember to put the unit after the number in your answer.

Ask: Name the recorded TG for `CN(C)C(=N)N=C(N)N` .
Result: 71.2 mg/dL

Ask: Try the compound `CC[C@H]1[C@@H]2C[C@H]3[C@@H]4N(C)c5ccccc5[C@]45C[C@@H]([C@@H]2[C@H]5O)N3[C@@H]1O`
Result: 101.4 mg/dL

Ask: Try the compound `O=NN(CCCl)C(=O)NC1CCCCC1`
Result: 114.6 mg/dL

###

Catalogue of IP values
Species on record: Rattus norvegicus
Assay: Open TG-GATES - Regimen: Daily Repeat
Format: toxicity, organism-based, Sprague-Dawley
Set-up: regimen Daily Repeat, gender Male, age 6 weeks
Details: in vivo, po, 0 mg/kg, […], tissue Plasma, route gavage, dose level Control, time 14 day
Write it as a number; the unit mg/dL goes unstated.

compound: CCc1oc2ccccc2c1C(=O)c1cc(Br)c(O)c(Br)c1
IP (mg/dL): 6.5

compound: CC1=C(CC(=O)O)c2cc(F)ccc2/C1=C\c1ccc([S+](C)[O-])cc1 (centres undefined)
IP (mg/dL): 6

compound: CC(C)N(CCC(C(N)=O)(c1ccccc1)c1ccccn1)C(C)C (centres undefined) [DISOPYRAMIDE]
IP (mg/dL): 7

Field: next compound
Ask: Name the recorded IP for `CC[C@H]1[C@@H]2C[C@H]3[C@@H]4N(C)c5ccccc5[C@]45C[C@@H]([C@@H]2[C@H]5O)N3[C@@H]1O` .
Result: 7.2

###

Species: Rattus norvegicus
Assay: Open TG-GATES - Regimen: Daily Repeat
Format: toxicity, organism-based, Sprague-Dawley
Parameters: regimen Daily Repeat, gender Male, age 6 weeks
Conditions: in vivo, po, 0 mg/kg, 72 h, tissue Blood, route gavage, dose level Control, time 3 day
parameter measured: Fbg (mg/dL)
Write it as a number; the unit mg/dL goes unstated.

Ask: Name the recorded Fbg for CC[C@H]1[C@@H]2C[C@H]3[C@@H]4N(C)c5ccccc5[C@]45C[C@@H]([C@@H]2[C@H]5O)N3[C@@H]1O [AJMALINE] .
Result: 218.4

Ask: Try the molecule CN(C)C(=N)N=C(N)N [METFORMIN]
Result: 246.8

Ask: Try the molecule CN(C)CCC=C1c2ccccc2COc2ccccc21 [DOXEPIN]
Result: 281.6

Ask: Try the molecule CCCCc1oc2ccccc2c1C(=O)c1cc(I)c(OCCN(CC)CC)c(I)c1 [AMIODARONE]
Result: 229

Ask: Try the molecule CCC1(c2ccccc2)C(=O)NC(=O)NC1=O [PHENOBARBITAL]
Result: 225

Ask: Try the molecule CC1=C(CC(=O)O)c2cc(F)ccc2/C1=C\c1ccc([S+](C)[O-])cc1 (stereo unspecified)
Result: 298.2
